System: SW-620
method_description: Growth inhibition of human SW620 cells after 48 hrs by MTT assay
Assay type: functional
condition_description: SW-620, 48 h
Label fulfilled when GI50 is strictly below 20 µM; at or above that, label not fulfilled.

chem_smiles: O=[N+]([O-])c1ccc(-c2cc(-c3ccc4c(c3)OCO4)n[nH]2)cc1
category_label: not fulfilled

chem_smiles: COc1ccc(-c2cc(-c3ccccc3-c3ccccc3)n[nH]2)cc1
category_label: fulfilled

chem_smiles: O=[N+]([O-])c1ccc(-c2cc(-c3ccc(F)cc3)n[nH]2)cc1
category_label: fulfilled

chem_smiles: COc1ccc(-c2cc(-c3ccccc3)n[nH]2)cc1
category_label: not fulfilled

###

Test system: AGS
method_description: Growth inhibition of human AGS cells after 48 hrs by MTT assay
Format: functional
Some compounds, each annotated with its measured log10 of GI50.
reported_metric: log10 of GI50 (log10 of the value in µM)

chem_smiles: Oc1ccc(-c2cc(-c3ccc(C(F)(F)F)cc3)n[nH]2)cc1
log10 of GI50: 0.99

chem_smiles: COc1ccc(-c2cc(-c3ccccc3)n[nH]2)cc1
log10 of GI50: 1.05

chem_smiles: Oc1ccc(-c2cc(-c3ccccc3-c3ccccc3)n[nH]2)cc1
log10 of GI50: 0.96

chem_smiles: COc1cccc(-c2cc(-c3ccccc3-c3ccccc3)n[nH]2)c1
log10 of GI50: 0.88

chem_smiles: COc1ccc(-c2cc(-c3ccccc3-c3ccccc3)n[nH]2)cc1
log10 of GI50: -0.10

chem_smiles: Nc1ccc(-c2cc(-c3ccccc3-c3ccccc3)n[nH]2)cc1
log10 of GI50: 0.92

chem_smiles: COc1ccc(-c2cc(-c3ccc4ccccc4c3)n[nH]2)cc1
log10 of GI50: 1.28

chem_smiles: O=[N+]([O-])c1ccc(-c2cc(-c3ccc(Cl)cc3)n[nH]2)cc1
log10 of GI50: 1.38

chem_smiles: COc1ccc(-c2cc(-c3ccc(C(F)(F)F)cc3)n[nH]2)cc1
log10 of GI50: 1.17

chem_smiles: O=[N+]([O-])c1ccc(-c2cc(-c3ccccc3-c3ccccc3)n[nH]2)cc1
log10 of GI50: 0.08

chem_smiles: O=[N+]([O-])c1ccc(-c2cc(-c3ccc4c(c3)OCO4)n[nH]2)cc1
log10 of GI50: 1.12

###

Tested on: AGS
method_description: Growth inhibition of human AGS cells after 48 hrs by MTT assay
Type: functional
Label T when GI50 is strictly below 10 µM; at or above that, label F.

chem_smiles: FC(F)(F)c1ccc(-c2cc(-c3ccccc3-c3ccccc3)n[nH]2)cc1
category_label: T
//
chem_smiles: O=[N+]([O-])c1ccc(-c2cc(-c3ccc(Br)cc3)n[nH]2)cc1
category_label: F
//
chem_smiles: Oc1ccccc1-c1cc(-c2ccccc2-c2ccccc2)n[nH]1
category_label: T
//
chem_smiles: O=[N+]([O-])c1ccc(-c2cc(-c3ccc(F)cc3)n[nH]2)cc1
category_label: F
//
chem_smiles: O=[N+]([O-])c1cccc(-c2cc(-c3ccccc3)n[nH]2)c1
category_label: F
